What binding signal was measured for each of the following?
Target: T1, UNK ZnF1-3 (human, UniProt Q9C0B0 31-174)
T1 sequence: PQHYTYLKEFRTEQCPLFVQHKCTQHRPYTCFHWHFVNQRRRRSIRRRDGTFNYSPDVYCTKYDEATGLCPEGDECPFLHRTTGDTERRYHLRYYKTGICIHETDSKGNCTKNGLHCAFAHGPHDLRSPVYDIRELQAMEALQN
Experiment: nsRBNS (natural sequence RNA bind-n-seq); RBNS binding buffer (assumed for nsRBNS): 25 mM Tris pH 7.5, 150 mM KCl, 3 mM MgCl2, 0.01% Triton X-100, 500 ug/ml BSA, 20 U/ml SUPERase-In, 4 C; UNK is unkempt and MSI1 is Musashi-1; names of the RNAs are library labels; protein concentration not given here; high values mean tight binding
Whole data set: some 24,000 sequences, median “enrichment r” near 0.99, cut for the highest 2% near 3.7. This excerpt belongs to a sample that is enriched for the highest values.
One number for each entry, in enrichment R.

- chr13:100194382:100194383:-_ENSMUSG00000052727_ENSMUST00000064762|mus_mus|motif|central (ssRNA) RNA: GGGAGUUCUACAGUCCGACGAUCUCCUGUAAAUGAAAACAUUUGUUAAAAAGUUCAUCUAUGAAAAGUUCUCGAGUAGCGGAAAAAAAAAAAAAAAAAAAAAAAAAUCUUCUGUACAUGUGUUCCCAUGUGUUGAAAUUAAUGCAACAGAGGAUUGAGCAUCA: 5.84

Now look at this one.
Suppose we examine the binder chr4:54876292:54876293:-_ENSG00000109220_ENST00000263921|perfect_dup|motif|central (ssRNA) RNA: GGGAGUUCUACAGUCCGACGAUCCUAUAAAUAAAGUAAAUGCUAAUCUGGUCGAAAAAUCGGUGUCUUUGGUAAAAAUUCGGUGAGGAUGACAUAUUCCAUCAUGUUAUUCGUUUCACAUUUCCUUUUGCUCAGUCUCCAAUGCAACAGAGGAUUGAGCAUCA ; what binding signal value has been reported?
1.46
